Let's look at some molecules and their measured log10 IC50.
# Assayed system: HLA A*3001 (Homo sapiens, UniProt P04439, D140H/D185E/E176W/F33S/G80R/H175R/K168Q/R138E/R41S)
# Sequence (P04439 25-365 limits assumed, stated change not applied): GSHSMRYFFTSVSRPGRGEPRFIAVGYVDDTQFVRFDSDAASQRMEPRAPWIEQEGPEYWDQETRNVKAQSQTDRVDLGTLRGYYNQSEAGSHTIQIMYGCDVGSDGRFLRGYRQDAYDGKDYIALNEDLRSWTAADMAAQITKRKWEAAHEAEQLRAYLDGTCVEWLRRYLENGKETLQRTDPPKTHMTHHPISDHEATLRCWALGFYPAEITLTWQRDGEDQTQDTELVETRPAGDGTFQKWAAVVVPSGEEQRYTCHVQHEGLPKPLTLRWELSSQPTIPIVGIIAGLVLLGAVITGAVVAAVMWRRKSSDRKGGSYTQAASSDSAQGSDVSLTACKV
# Method description: biochemical
Where a SMILES comes first, the peptide text is derived from it.
Hi team, quick reminder: these entries are log10 of IC50 (nM).

Solved entries:
INSERT INTO assay_data (molecule, experimental_value) VALUES
  ('C[C@H](NC(=O)[C@H](C)NC(=O)[C@@H]1CCCN1C(=O)[C@H](CCCCN)NC(=O)[C@H](CO)NC(=O)[C@H](CCCNC(=N)N)NC(=O)[C@H](CO)NC(=O)[C@H](Cc1ccc(O)cc1)NC(=O)[C@@H](N)CCCCN)C(=O)O [3102.1349] (H-KYSRSKPAA-OH)', 0.76),
  ('C[C@@H](O)[C@H](NC(=O)[C@H](CO)NC(=O)CNC(=O)[C@H](CCCNC(=N)N)NC(=O)[C@H](CC(N)=O)NC(=O)CN)C(=O)N[C@@H](CO)C(=O)N[C@@H](Cc1ccccc1)C(=O)N[C@@H](CCCCN)C(=O)O [3102.0043] (H-GNRGSTSFK-OH)', 0.30),
  ('CC(C)C[C@H](NC(=O)[C@H](CC(=O)O)NC(=O)[C@H](CCCCN)NC(=O)[C@@H](NC(=O)[C@@H](N)CCCCN)C(C)C)C(=O)N[C@@H](Cc1ccccc1)C(=O)N[C@@H](CC(N)=O)C(=O)N[C@H](C(=O)N[C@@H](CCCCN)C(=O)O)[C@@H](C)O [3102.0238] (H-KVKDLFNTK-OH)', 1.58);

### Prompt Please indicate log10 IC50 recorded for CC[C@H](C)[C@H](NC(=O)[C@H](CCCNC(=N)N)NC(=O)[C@H](CC(N)=O)NC(=O)[C@@H](NC(=O)[C@H](CCC(=O)O)NC(=O)[C@H](CCCCN)NC(=O)[C@@H](NC(=O)[C@@H](N)CCCCN)[C@@H](C)O)[C@@H](C)O)C(=O)N[C@@H](Cc1ccc(O)cc1)C(=O)O [3102.0056] (H-KTKETNRIY-OH)
### Response 1.04

### Prompt Please indicate log10 IC50 recorded for CC(C)[C@H](NC(=O)[C@H](CO)NC(=O)[C@@H]1CCCN1C(=O)[C@H](CO)NC(=O)[C@H](C)NC(=O)[C@H](Cc1ccc(O)cc1)NC(=O)[C@H](Cc1ccccc1)NC(=O)CNC(=O)[C@@H](N)CCCCN)C(=O)O [3102.0070] (H-KGFYASPSV-OH)
### Response 0.43

### Prompt Please indicate log10 IC50 recorded for CC[C@H](C)[C@H](NC(=O)[C@H](CC(N)=O)NC(=O)[C@@H]1CCCN1C(=O)[C@H](CCCNC(=N)N)NC(=O)[C@H](Cc1ccc(O)cc1)NC(=O)[C@@H](N)CC(C)C)C(=O)N1CCC[C@H]1C(=O)N[C@@H](CC(C)C)C(=O)N[C@@H](CCCCN)C(=O)O [3102.0026] (H-LYRPNIPLK-OH)
### Response 0.54

### Prompt Please indicate log10 IC50 recorded for CC[C@H](C)[C@H](NC(=O)CNC(=O)[C@H](CC(C)C)NC(=O)[C@@H]1CCCN1C(=O)CNC(=O)[C@H](CCCNC(=N)N)NC(=O)[C@@H](NC(=O)[C@@H](N)CCCNC(=N)N)[C@@H](C)O)C(=O)N[C@@H](CC(C)C)C(=O)O [3102.0040] (H-RTRGPLGIL-OH)
### Response -1.07

### Prompt Please indicate log10 IC50 recorded for CC[C@H](C)[C@H](NC(=O)[C@@H](N)CCCCN)C(=O)N[C@@H](CCCCN)C(=O)N[C@@H](CO)C(=O)N[C@@H](CO)C(=O)N[C@@H](CC(N)=O)C(=O)N[C@@H](CO)C(=O)N[C@@H](CO)C(=O)N[C@@H](CCCCN)C(=O)O [3102.0091] (H-KIKSSNSSK-OH)
### Response 1.18

### Prompt Please indicate log10 IC50 recorded for CC(C)C[C@H](NC(=O)[C@H](CO)NC(=O)[C@@H]1CCCN1C(=O)[C@@H]1CCCN1C(=O)[C@H](CO)NC(=O)[C@@H](NC(=O)[C@@H](N)CCCCN)C(C)C)C(=O)NCC(=O)N[C@@H](CCCCN)C(=O)O [3102.0017] (H-KVSPPSLGK-OH)
### Response 0.04

### Prompt Please indicate log10 IC50 recorded for CC[C@H](C)[C@H](NC(=O)[C@H](Cc1c[nH]cn1)NC(=O)[C@@H](NC(=O)[C@H](CC(N)=O)NC(=O)[C@H](CCCCN)NC(=O)[C@@H](NC(=O)[C@@H](N)CCCCN)C(C)C)C(C)C)C(=O)NCC(=O)NCC(=O)O [3102.0099] (H-KVKNVHIGG-OH)
### Response -0.47

### Prompt Please indicate log10 IC50 recorded for CC[C@H](C)[C@H](N)C(=O)N[C@@H](CO)C(=O)N[C@@H](CCCNC(=N)N)C(=O)N[C@@H](Cc1ccccc1)C(=O)N[C@@H](C)C(=O)N[C@@H](CC(N)=O)C(=O)N[C@@H](CC(C)C)C(=O)N[C@H](C(=O)N[C@@H](CCCCN)C(=O)O)[C@@H](C)CC [3102.0098] (H-ISRFANLIK-OH)
### Response 1.11

### Prompt Please indicate log10 IC50 recorded for CC[C@H](C)[C@H](NC(=O)[C@H](Cc1c[nH]cn1)NC(=O)[C@H](Cc1ccc(O)cc1)NC(=O)[C@H](C)NC(=O)[C@H](CCCCN)NC(=O)[C@@H](N)CCCNC(=N)N)C(=O)N[C@H](C(=O)N[C@@H](Cc1ccccc1)C(=O)N[C@@H](Cc1ccccc1)C(=O)O)[C@@H](C)CC [3102.1054] (H-RKAYHIIFF-OH)
### Response 0.73

### Prompt Please indicate log10 IC50 recorded for CC[C@H](C)[C@H](NC(=O)[C@H](CO)NC(=O)[C@@H](N)CCCCN)C(=O)N[C@@H](CCC(=O)O)C(=O)N[C@@H](CCC(N)=O)C(=O)N[C@@H](Cc1c[nH]cn1)C(=O)N1CCC[C@H]1C(=O)N[C@H](C(=O)N[C@H](C(=O)O)C(C)C)C(C)C [3102.0246] (H-KSIEQHPVV-OH)
### Response 0.43

### Prompt Please indicate log10 IC50 recorded for CC[C@H](C)[C@H](NC(=O)[C@H](CC(=O)O)NC(=O)[C@H](CC(C)C)NC(=O)[C@@H](NC(=O)[C@@H](N)CCCCN)[C@@H](C)O)C(=O)N[C@@H](CO)C(=O)N[C@@H](CO)C(=O)N[C@@H](Cc1ccccc1)C(=O)N[C@@H](Cc1ccc(O)cc1)C(=O)O [3102.0151] (H-KTLDISSFY-OH)
### Response 1.36
